# experimentalDetails: Determination of stability in rat plasma
# Type: in vitro ADME
# protocolConditions: 37° C., read-out: Stability t1/2 in rat plasma (converted)
Where a name gives a salt, the structure may show the parent alone.
Binary call on half-life: MET from 3000 min upward, NOT MET beneath that.

The examples below pair each entry with its known result.
compound="CC(OC(=O)[C@@H](NC(=O)OC(C)(C)C)C(C)C)c1ccc([C@H]2C[C@@]3(C)C(CC[C@@]3(O)C(F)(F)C(F)(F)F)C3CCC4=CC(=O)CCC4=C32)cc1 (mixture of isomers) [Example 5]" categorylabel=MET
compound="CC(OC(=O)[C@@H](C)NC(=O)OC(C)(C)C)c1ccc([C@H]2C[C@@]3(C)[C@@H](CC[C@@]3(O)C(F)(F)C(F)(F)F)[C@@H]3CCC4=CC(=O)CCC4=C32)cc1 (mixture of isomers) [Example 6]" categorylabel="NOT MET"
compound="Cc1nccn1CCC(=O)O[C@H](C)c1ccc([C@H]2C[C@@]3(C)[C@@H](CC[C@@]3(O)C(F)(F)C(F)(F)F)[C@@H]3CCC4=CC(=O)CCC4=C32)cc1 (single isomer, unassigned) [Example 14B]" categorylabel="NOT MET"
compound="CC(OC(=O)[C@@H]1CCCN1C(=O)OC(C)(C)C)c1ccc([C@H]2C[C@@]3(C)C(CC[C@@]3(O)C(F)(F)C(F)(F)F)C3CCC4=CC(=O)CCC4=C32)cc1 (mixture of isomers) [Example 11]" categorylabel=MET
compound="C=CCOC(=O)N[C@@H](C)C(=O)O[C@@H](C)c1ccc([C@H]2C[C@@]3(C)[C@@H](CC[C@@]3(O)C(F)(F)C(F)(F)F)[C@@H]3CCC4=CC(=O)CCC4=C32)cc1 [Example 10]" categorylabel="NOT MET"
compound="CC(OC(=O)CCc1nccs1)c1ccc([C@H]2C[C@@]3(C)C(CC[C@@]3(O)C(F)(F)C(F)(F)F)C3CCC4=CC(=O)CCC4=C32)cc1 (mixture of isomers) [Example 15]" categorylabel="NOT MET"
compound="CC(OC(=O)[C@@H]1CCCN1)c1ccc([C@H]2C[C@@]3(C)C(CC[C@@]3(O)C(F)(F)C(F)(F)F)C3CCC4=CC(=O)CCC4=C32)cc1 (mixture of isomers) [Example 13, hydrochloride]" categorylabel="NOT MET"
compound="CC(=O)O[C@H](C)c1ccc([C@H]2C[C@@]3(C)C(CC[C@@]3(O)C(F)(F)C(F)(F)F)C3CCC4=CC(=O)CCC4=C32)cc1 (mixture of isomers) [Example 1]" categorylabel=MET

half-life >= 3000 min for CC(OC(=O)CC(C)(C)C)c1ccc([C@H]2C[C@@]3(C)C(CC[C@@]3(O)C(F)(F)C(F)(F)F)C3CCC4=CC(=O)CCC4=C32)cc1 (mixture of isomers) [Example 4] ?
MET
